B1: Osa-1-4 twister ribozyme (parent)
chain: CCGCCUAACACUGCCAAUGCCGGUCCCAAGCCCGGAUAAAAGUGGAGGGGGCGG

Variants of: B1
Assay Notes: self-cleavage, relative activity (ratio to wild type); higher = more cleavage; co-transcriptional
Parameter: self-cleavage

> print(dat)
                             record.sequence  recorded.value
 1  CCGCCUAACACUGCCAAUGCCGGUCCCAAGCCAGGAUAUAAGUGGAGGGGGCGG [A39U C33A]            0.09
 2  CCGCCUAAGACUGCCAAUGCCGGUCCCAAGCCCGGAUAAAAGUGGAGGGGGAGG [C52A C9G]             0.8
 3  CCGCCUAACACUGCCAAUGCCGGUCCCAAGCCCGGAUAAAAGAGGAGGGAGCGG [G50A U43A]            0.38
 4  CCGCCUAACACUGCCAAUGGCGGUCCCAGGCCCGGAUAAAAGUGGAGGGGGCGG [A29G C20G]            0.04
 5  CCGCCUAACACUGCCAGUGCCGGGCCCAAGCCCGGAUAAAAGUGGAGGGGGCGG [A17G U24G]            0.03
 6  CCGCCUGACACCGCCAAUGCCGGUCCCAAGCCCGGAUAAAAGUGGAGGGGGCGG [A7G U12C]             0.1
 7  CCGCCUAACACUGCCAAUACCGGUCCCAAGCCUGGAUAAAAGUGGAGGGGGCGG [C33U G19A]            0.17
 8  CCGCCUAACACUUCCAAUGCCGGUCCCAAGCCCGGAUAAAAGUUGAGGGGGCGG [G13U G44U]            0.04
 9  CCGCCUAACACUGCCAAUGCCGGUCCCAAGCCCGGAUACAAGUGGAGGUGGCGG [A39C G49U]            0.06
10  CCGCCUAACACUGCCAAUUCCGGUCCCAAGCCCGGAUAAAUGUGGAGGGGGCGG [A41U G19U]            0.35
11  CCGCCUAACACUGCCAAUGCCGGUCCCCAGCCCGGAUAAAAGUGGAGGGGGGGG [A28C C52G]            0.93
12  CCGCCUAACACUGCCAAUGCCGGUGCCAAGCCCGGGUAAAAGUGGAGGGGGCGG [A36G C25G]            0.13
13  CCGCCUAACACUGCCAAUGCCGGUCCCAAGCCCGGAUAACAGUGGAGCGGGCGG [A40C G48C]            0.02
14  CCGCCUAAUACUGCCAAUGCCGGUCCCAAGCCCGGGUAAAAGUGGAGGGGGCGG [A36G C9U]            0.77
15  CCGCCUAACACUGCCAAUGCCGGUCCCAAGCCCGGAUAAAAGUUGAGGGGGCGU [G44U G54U]             0.9
16  CCGCCUAACACUGCCAAUGCCGGUCCCAAGCCCGGAUAAAAGUGGAGGCGGCGA [G49C G54A]            0.06
17  CCGCCUAACACUGCCAAUGCCAGUCCCCAGCCCGGAUAAAAGUGGAGGGGGCGG [A28C G22A]            0.68
18  CCGCCUAACACUGCCAAUGCCGGUCCCAAACCCGGAUAAAAGUGGAGGCGGCGG [G30A G49C]            0.02
19  CCGCCUAACACUGCCACUGCCGGUCCCAAGCUCGGAUAAAAGUGGAGGGGGCGG [A17C C32U]            0.05
20  CCGCCUAACAAUGCCAAUGCCGGUCCCAAGCCCGGAUAAAAGAGGAGGGGGCGG [C11A U43A]            0.76
21  CCGCCUAACACUGCCAAUGCCGGUCACAAGCGCGGAUAAAAGUGGAGGGGGCGG [C26A C32G]            0.03
22  CCGCCUAACACUGCAAAUGCCGGUCCCAAGCCCGGAUAAAAGUGGAGGUGGCGG [C15A G49U]            0.05
23  CCGCCUAACCCUGCCAAUGGCGGUCCCAAGCCCGGAUAAAAGUGGAGGGGGCGG [A10C C20G]            0.03
24  CCGCCUAACACUGCCAGUGCCGGCCCCAAGCCCGGAUAAAAGUGGAGGGGGCGG [A17G U24C]            0.36
25  CCGCCUGACACUGCCAAUGCCGGUCCCAAGCCCGGAUAAAAGUGGAGGGAGCGG [A7G G50A]            0.17
26  CCGCCUAACACUGUCAAUGCCGGUCCCAAGCCCGGAUAAAAGUGGAGGGGGCGG [C14U]            0.63
27  CCGCCUAACACUGCCAAUCCCGGUCGCAAGCCCGGAUAAAAGUGGAGGGGGCGG [C26G G19C]            0.04
28  CCGCCUAACACUGCCAUUGCCGGUCCCAAGCGCGGAUAAAAGUGGAGGGGGCGG [A17U C32G]            0.17
29  CCGCCUAACACUGCCAAUGCCGGUCCCAAGCCCGGAUAAAAGUGGACGGGGCCG [G47C G53C]            0.06
30  CCGCCUAACACUGCCAAUGCCGGUCCCAAGCCCUGAUAAAAGUCGAGGGGGCGG [G34U G44C]            0.41
31  CCGCCUAACAGUGCCAAUGCCGGUCCCAAGCCCGGAUAAAAGUGGAGGGGGCAG [C11G G53A]            0.17
32  CCGCCUAACACUGCGAAUGCCGGUCCCAAGCCCCGAUAAAAGUGGAGGGGGCGG [C15G G34C]            0.18
33  CCGCCUGACACUCCCAAUGCCGGUCCCAAGCCCGGAUAAAAGUGGAGGGGGCGG [A7G G13C]            0.03
34  CCGCCUAACACUGCCAAUGCCGGUCCCAAGCCCGGAUAACAGUGGCGGGGGCGG [A40C A46C]            0.04
35  CCGCCUAACACUGCCACUGCCGGUCCAAAGCCCGGAUAAAAGUGGAGGGGGCGG [A17C C27A]            0.06
